Biological target: CRTH2 (Homo sapiens, UniProt Q9Y5Y4)
Sequence (Q9Y5Y4 1-395): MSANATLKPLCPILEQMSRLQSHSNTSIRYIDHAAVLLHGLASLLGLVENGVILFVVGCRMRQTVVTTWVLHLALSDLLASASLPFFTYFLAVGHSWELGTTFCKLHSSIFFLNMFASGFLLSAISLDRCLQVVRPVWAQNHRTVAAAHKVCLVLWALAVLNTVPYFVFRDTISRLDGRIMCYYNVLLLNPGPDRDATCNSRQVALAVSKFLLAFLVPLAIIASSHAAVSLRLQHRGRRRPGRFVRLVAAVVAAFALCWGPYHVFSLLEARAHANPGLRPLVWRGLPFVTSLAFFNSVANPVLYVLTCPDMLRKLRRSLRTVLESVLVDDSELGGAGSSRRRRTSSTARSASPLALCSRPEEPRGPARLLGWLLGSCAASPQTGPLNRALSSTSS
Test: FRET based competitive immunoassay (cAMP) in CRTH2 expressing CHO cells
Details: CRTH2 expressing CHO cells incubated with forskolin and PGD2; Eu3+ cryptate-labeled anti-cAMP and d2-labeled cAMP
Reported Metric: pIC50
Formally, pIC50 is defined as -log10 of the concentration c, with c in mol/L.

For orientation, consider the following solved cases.
Cc1c(-c2nn(Cc3nc4ccccc4s3)c(=O)c3ccccc23)c2cc(F)ccc2n1CC(=O)O :: 8.15
Cc1c(-c2ccc(=O)n(Cc3ccc(F)cc3F)n2)c2cc(F)ccc2n1CC(=O)O :: 7.77
Cc1c(-c2nn(Cc3c(F)cccc3F)c(=O)c3ccccc23)c2cc(Cl)ccc2n1CC(=O)O :: 8.00
Cc1c(-c2nn(CCc3ccccc3)c(=O)c3ccccc23)c2ccccc2n1CC(=O)O :: 7.57
Cc1c(Cc2ccc(=O)n(CC(F)(F)F)c2)c2cc(Cl)ccc2n1CC(=O)O :: 7.26

Task: Could you share which pIC50 value was measured for Cc1c(-c2nn(C)c(=O)c3ccccc23)c2cc(Cl)ccc2n1CC(=O)O ?
Result: 6.92

Task: Param item = CCn1nc(-c2c(C)n(CC(=O)O)c3ccc(F)cc23)ccc1=O ; retrieve measured pIC50.
Result: 6.43

Task: Request the reported pIC50 associated with Cc1c(-c2ccc(=O)n(Cc3ccccn3)c2)c2cc(F)ccc2n1CC(=O)O
Result: 6.98

Task: State the recorded pIC50 for this entry: Cc1c(-c2ccc(=O)n(Cc3ccc(S(C)(=O)=O)cc3)n2)c2cc(F)ccc2n1CC(=O)O
Result: 7.12

Task: Param item = Cc1c(-c2ccc(=O)n(Cc3nnc[nH]3)n2)c2cc(F)ccc2n1CC(=O)O [Example 260a] ; retrieve measured pIC50.
Result: 5.47

====

Molecular target: CRTH2 (Homo sapiens)
Assay: FRET based competitive immunoassay (cAMP) in CRTH2 expressing CHO cells
Conditions: CRTH2 expressing CHO cells incubated with forskolin and PGD2; Eu3+ cryptate-labeled anti-cAMP and d2-labeled cAMP
Assign labels as follows, please: rule met for IC50 below 40 nM; rule not met for IC50 equal to or exceeding 40 nM.

Reference set (3 entries):
Cc1c(-c2nn(CC(F)(F)F)c(=O)c3ccccc23)c2cc(Cl)ccc2n1CC(=O)O :: rule not met
Cc1c(Cc2ccc(=O)n(Cc3cccc(F)c3)n2)c2ccccc2n1CC(=O)O :: rule not met
Cc1c(Cc2ccc(=O)n(Cc3ccc(F)c(F)c3)c2)c2cc(F)ccc2n1CC(=O)NS(C)(=O)=O :: rule not met

Task: Determine if Cc1c(Cc2ccc(=O)n(Cc3ccc(F)c(F)c3)c2)c2ccccc2n1CC(=O)O shows IC50 strictly lower than 40 nM.
Result: rule not met

Task: Please let me know if Cc1c(-c2ccc(=O)n(CCOc3ccc(Cl)cc3)n2)c2cc(F)ccc2n1CC(=O)O shows IC50 below 40 nM.
Result: rule met

Task: Would you kindly verify if IC50 of Cc1c(Cc2ccc(=O)n(CC(O)(C(F)(F)F)C(F)(F)F)n2)c2cc(F)ccc2n1CC(=O)O is strictly less than 40 nM?
Result: rule met

Task: In plain terms, does Cc1c(Cc2ccc(=O)n(Cc3cccc(C(C)(C)O)c3)n2)c2cc(F)ccc2n1CC(=O)O come in under 40 nM for IC50?
Result: rule met

Task: Identify whether the compound Cc1c(-c2ccc(=O)n(C(C)C)c2)c2ccccc2n1CC(=O)O records IC50 below 40 nM.
Result: rule not met

Task: Hi there! Is IC50 for Cc1c(-c2ccc(=O)n(Cc3ccccc3)c2)c2cc(Cl)ccc2n1CC(=O)O below 40 nM, do you know?
Result: rule met

Task: Does this compound meet the criterion IC50 < 40 nM? Cc1ccc(Cn2nc(-c3c(C)n(CC(=O)O)c4ccccc34)c3ccccc3c2=O)cc1
Result: rule not met

Task: Identify whether the compound Cc1c(-c2cn(CCCC(F)(F)F)c(=O)c3ccccc23)c2cc(F)ccc2n1CC(=O)O records IC50 below 40 nM.
Result: rule met

Task: Does this compound meet the criterion IC50 < 40 nM? Cc1c(Cc2ccc(=O)n(Cc3ccccc3)c2)c2cc(F)ccc2n1CC(=O)O
Result: rule met

Task: Please indicate whether the reported IC50 of Cc1c(Cc2ccc(=O)n(C(C)C)c2)c2cc(F)ccc2n1CC(=O)O is strictly below 40 nM.
Result: rule not met
